Biological target: IRAK4 enzyme (Homo sapiens (Human))
Sequence (Q9NWZ3 whole entry): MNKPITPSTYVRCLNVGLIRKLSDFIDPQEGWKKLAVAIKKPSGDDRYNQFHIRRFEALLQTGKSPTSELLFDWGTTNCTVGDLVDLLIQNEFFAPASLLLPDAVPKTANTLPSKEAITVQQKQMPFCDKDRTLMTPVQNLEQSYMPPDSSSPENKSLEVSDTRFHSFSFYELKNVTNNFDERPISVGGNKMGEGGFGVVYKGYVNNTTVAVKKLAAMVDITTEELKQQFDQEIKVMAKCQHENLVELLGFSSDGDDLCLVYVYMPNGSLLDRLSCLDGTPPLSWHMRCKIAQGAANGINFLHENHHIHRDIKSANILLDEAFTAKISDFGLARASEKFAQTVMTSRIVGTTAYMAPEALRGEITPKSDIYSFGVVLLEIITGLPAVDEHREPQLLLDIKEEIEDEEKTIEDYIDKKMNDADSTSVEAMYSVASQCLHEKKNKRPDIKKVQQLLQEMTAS
Assay: biochemical
Type: biochemical
Settings: IRAK4 enzyme, TR-FRET (HTRF), 500 μM ATP
pIC50: −log10 of the molar value.
VALUE KIND: pIC50

COMPOUND	SYSTEM UNDER TEST	MODIFIER	ASSAY VALUE
CC(C)Nc1cc(-c2ccc3cc(C#N)cnn23)ncc1C(=O)NCCC(C)(N)C(F)F (stereo not drawn) [Example 555]	IRAK4 enzyme (Homo sapiens (Human))	=	9.00
COC(=O)NCC(C)(C)CNc1cc(-c2ccc3cc(C#N)cnn23)ncc1C(=O)NC[C@@H](F)C(C)(C)O [Example 718]	IRAK4 enzyme (Homo sapiens (Human))	=	8.70
CC(C)(O)[C@H](F)CNC(=O)c1cnc(-c2ccc3cc(C#N)cnn23)cc1Nc1ccc2cn[nH]c2c1 [Example 574]	IRAK4 enzyme (Homo sapiens (Human))	>	9.00
CNC(=O)c1cnc(-c2ccc3cc(C#N)cnn23)cc1N[C@@H]1CC[C@@H](C(=O)NC)C1 [Example 466]	IRAK4 enzyme (Homo sapiens (Human))	=	8.10
CNC(=O)c1cnc(-c2ccc3cc(C#N)cnn23)cc1NC12CC(C1)C2 [Example 489]	IRAK4 enzyme (Homo sapiens (Human))	=	8.70
CC(C)(O)[C@H](F)CNC(=O)c1cnc(-c2ccc3cc(C#N)cnn23)cc1Nc1ncc(C#N)cn1 [Example 420]	IRAK4 enzyme (Homo sapiens (Human))	=	8.22
COC(=O)NCC1(F)CC(Nc2cc(-c3ccc4cc(C#N)cnn34)ncc2C(=O)NC[C@@H](F)C(C)(C)O)C1 (single isomer, unassigned) [Example 765]	IRAK4 enzyme (Homo sapiens (Human))	=	8.22
CC(C)(O)[C@H](F)CNC(=O)c1cnc(-c2ccc3cc(C#N)cnn23)cc1Nc1cnc(C2CC2)nc1 [Example 666]	IRAK4 enzyme (Homo sapiens (Human))	>	9.00
[2H]C([2H])([2H])N(C(=O)C12CCC(Nc3cc(-c4ccc5cc(C#N)cnn45)ncc3C(=O)NC[C@@H](F)C(C)(C)O)(CC1)CC2)C([2H])([2H])[2H] [Example 404]	IRAK4 enzyme (Homo sapiens (Human))	=	9.00
COC(=O)N1CC[C@@H](CNC(=O)c2cnc(-c3ccc4cc(C#N)cnn34)cc2NC23CCC(O)(CC2)CC3)C1 [Example 742]	IRAK4 enzyme (Homo sapiens (Human))	=	9.00
N#Cc1cnn2c(-c3cc(NC45CCC(O)(CC4)CC5)c(C(=O)NCC4(CO)COC4)cn3)ccc2c1 [Example 711]	IRAK4 enzyme (Homo sapiens (Human))	=	8.70
N#Cc1cnn2c(-c3cc(NC4COC4)c(C(=O)N[C@H]4CC[C@H](NC(=O)C5CC5)CC4)cn3)ccc2c1 [Example 526]	IRAK4 enzyme (Homo sapiens (Human))	=	9.00
N#CCNC(=O)c1cnc(-c2ccc3cc(C#N)cnn23)cc1NC12CCC(C(=O)NC3COC3)(CC1)CC2 [Example 454]	IRAK4 enzyme (Homo sapiens (Human))	>	9.00
COC(=O)NCC1(F)CC(Nc2cc(-c3ccc4cc(C#N)cnn34)ncc2C(=O)NC[C@@H](F)C(C)(C)O)C1 (single isomer, unassigned) [Example 764]	IRAK4 enzyme (Homo sapiens (Human))	>	9.00
COC(=O)N1CC[C@H](Nc2cc(-c3ccc4cc(C#N)cnn34)ncc2C(=O)NC[C@@H](F)C(C)(C)O)C1 [Example 751]	IRAK4 enzyme (Homo sapiens (Human))	=	8.40
CC(C)(O)[C@H](F)CNC(=O)c1cnc(-c2ccc3cc(C#N)cnn23)cc1NC12CCC(N3CCOCC3)(CC1)CC2 [Example 780]	IRAK4 enzyme (Homo sapiens (Human))	=	9.00
CNc1ccc(Nc2cc(-c3ccc4cc(C#N)cnn34)ncc2C(=O)NC[C@@H](F)C(C)(C)O)cn1 [Example 661]	IRAK4 enzyme (Homo sapiens (Human))	>	9.00
CC1(Nc2cc(-c3ccc4cc(C#N)cnn34)ncc2C(=O)NCC#N)COC1 [Example 612]	IRAK4 enzyme (Homo sapiens (Human))	>	9.00
N#Cc1cnn2c(-c3cc(Nc4cccnc4)c(C(=O)N[C@H]4CC[C@H](NC(=O)C5CC5)CC4)cn3)ccc2c1 [Example 502]	IRAK4 enzyme (Homo sapiens (Human))	=	9.00
COC(=O)N[C@H]1C[C@H](CNC(=O)c2cnc(-c3ccc4cc(C#N)cnn34)cc2NC23CCC(O)(CC2)CC3)C1 [Example 733]	IRAK4 enzyme (Homo sapiens (Human))	=	8.70
N#Cc1cnn2c(-c3cc(NC45CCC(O)(CC4)CC5)c(C(=O)NCc4ccc[nH]c4=O)cn3)ccc2c1 [Example 624]	IRAK4 enzyme (Homo sapiens (Human))	=	8.52
COc1cc(Nc2cc(-c3ccc4cc(C#N)cnn34)ncc2C(=O)NC[C@@H](F)C(C)(C)O)ccc1C(N)=O [Example 604]	IRAK4 enzyme (Homo sapiens (Human))	=	8.15
Cc1cc(Nc2cc(-c3ccc4cc(C#N)cnn34)ncc2C(=O)NC[C@@H](F)C(C)(C)O)ccc1C(N)=O [Example 581]	IRAK4 enzyme (Homo sapiens (Human))	>	9.00
Cc1cn2ccc(Nc3cc(-c4ccc5cc(C#N)cnn45)ncc3C(=O)NC[C@@H](F)C(C)(C)O)cc2n1 [Example 563]	IRAK4 enzyme (Homo sapiens (Human))	=	8.70
CC(C)(O)[C@H](F)CNC(=O)c1cnc(-c2ccc3cc(C#N)cnn23)cc1Nc1ccc(Cn2ccccc2=O)cc1 [Example 719]	IRAK4 enzyme (Homo sapiens (Human))	>	9.00
CC(C)(O)[C@H](F)CNC(=O)c1cnc(-c2ccc3cc(C#N)cnn23)cc1N[C@H]1CC[C@](C)(N)CC1 [Example 535]	IRAK4 enzyme (Homo sapiens (Human))	=	8.70
C=CC(=O)N[C@H]1CC[C@H](Nc2cc(-c3ccc4cc(C#N)cnn34)ncc2C(=O)NC[C@@H](F)C(C)(C)O)CC1 [Example 425]	IRAK4 enzyme (Homo sapiens (Human))	=	8.70
